Values were extracted from patent US10988474B2.

Target: human prostanoid DP1 receptor (Homo sapiens)
Construct: expressed in transfected cells
Sequence (Q13258 whole entry): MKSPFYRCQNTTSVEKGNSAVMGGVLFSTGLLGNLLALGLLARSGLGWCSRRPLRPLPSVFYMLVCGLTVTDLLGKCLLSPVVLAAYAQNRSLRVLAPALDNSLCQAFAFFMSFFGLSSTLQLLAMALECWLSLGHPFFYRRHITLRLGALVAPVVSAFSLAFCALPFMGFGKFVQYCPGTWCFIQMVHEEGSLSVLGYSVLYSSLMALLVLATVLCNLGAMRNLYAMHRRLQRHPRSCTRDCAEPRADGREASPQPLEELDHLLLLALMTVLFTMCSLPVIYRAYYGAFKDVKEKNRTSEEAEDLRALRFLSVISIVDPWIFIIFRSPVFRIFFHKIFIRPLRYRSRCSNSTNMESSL
Assay: FLIPR Ca2+ signaling PG antagonist assay, DP1 stable cell line
Assay type: cell-based
Conditions: HEK-293 EBNA cells, human recombinant DP1 with chimeric Gqs; standard agonist BW 245C; read-out: DP (Kb, PG antagonist activity)
Readout name: Kb (nM)

In the examples that follow, each entry is paired with its recorded Kb.
Measured Kb (human prostanoid DP1 receptor (Homo sapiens)), entry CCC(CC)COc1ccc(Br)cc1Cn1nc(C)c2cc(C(=O)O)ccc21 [Example 27] : 1600

Measured Kb (human prostanoid DP1 receptor (Homo sapiens)), entry O=C(O)c1cccc2nn(Cc3cc(Cl)ccc3OCC3CC3)cc12 [Example 35] : 1900

Measured Kb (human prostanoid DP1 receptor (Homo sapiens)), entry Cc1nn(Cc2cc(OC(F)(F)F)ccc2OCC(C)C)c2ccc(C(=O)O)cc12 [Example 22] : 1700

Measured Kb (human prostanoid DP1 receptor (Homo sapiens)), entry O=C(O)c1ccc2c(cnn2Cc2cc(Cl)ccc2OCc2ccccc2)c1 [Example 8] : 2600

Measured Kb (human prostanoid DP1 receptor (Homo sapiens)), entry CC(C)COc1ccc(OCC(F)F)cc1Cn1ncc2cc(C(=O)O)ccc21 [Example 55] : 1200

(a) O=C(O)c1ccc2c(cnn2Cc2cc(Br)ccc2OCc2ccccc2)c1 [Example 12]
(b) CC(C)(C)COc1ccc(Br)cc1Cn1ncc2cc(C(=O)O)ccc21 [Example 52]
Looking only at measured Kb, which entry is lower, a or b ? Refer to your chosen item by its label in the answer. a
(a: 1600 nM, b: 2300 nM)

###

Target: human prostanoid EP1 receptor (Homo sapiens, UniProt P34995)
Construct: expressed in transfected cells
Sequence (P34995 whole entry): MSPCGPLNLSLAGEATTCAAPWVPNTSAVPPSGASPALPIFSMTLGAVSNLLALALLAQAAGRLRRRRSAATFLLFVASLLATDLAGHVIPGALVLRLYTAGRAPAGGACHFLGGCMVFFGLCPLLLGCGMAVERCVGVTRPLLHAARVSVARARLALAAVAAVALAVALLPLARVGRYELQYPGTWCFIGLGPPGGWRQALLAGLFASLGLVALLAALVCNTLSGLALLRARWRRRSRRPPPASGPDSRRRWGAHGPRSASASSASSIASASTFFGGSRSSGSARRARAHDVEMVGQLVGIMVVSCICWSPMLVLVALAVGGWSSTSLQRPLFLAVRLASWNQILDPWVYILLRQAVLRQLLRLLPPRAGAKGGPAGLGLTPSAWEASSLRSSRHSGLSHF
Assay: FLIPR Ca2+ signaling PG antagonist assay, EP1 stable cell line
Type: cell-based
Settings: HEK-293 EBNA cells, human recombinant EP1, no exogenous G-protein; standard agonist PGE2
Readout name: Kb (nM)

(a) CC(C)COc1ccc(Br)cc1Cn1ncc2c(C(=O)O)cccc21
(b) O=C(O)c1ccc2c(cnn2Cc2cc(Br)ccc2OCc2ccccc2)c1
(c) O=C(O)c1ccc2cn(Cc3cc(Br)ccc3OCC3CCCC3)nc2c1
(d) CC(C)COc1ccc(Br)cc1Cn1ccc2nc(C(=O)O)ccc21
Sort the items above on Kb, descending. Show the ranking through the labels, in the order asked for. b, d, a, c
(b: 360 nM, d: 80 nM, a: 45 nM, c: 23 nM)

(I) CCC(CC)COc1ccc(Br)cc1Cn1nc(C)c2cc(C(=O)O)cnc21
(II) CC(C)COc1ccc(Cl)cc1Cn1ncc2cc(C(=O)O)cnc21
Looking only at measured Kb, which entry is lower, I or II ? Refer to your chosen item by its label in the answer. II
(II: 27 nM, I: 280 nM)

###

Biological target: human prostanoid IP receptor (Homo sapiens)
Construct: expressed in transfected cells
Sequence (P43119 whole entry): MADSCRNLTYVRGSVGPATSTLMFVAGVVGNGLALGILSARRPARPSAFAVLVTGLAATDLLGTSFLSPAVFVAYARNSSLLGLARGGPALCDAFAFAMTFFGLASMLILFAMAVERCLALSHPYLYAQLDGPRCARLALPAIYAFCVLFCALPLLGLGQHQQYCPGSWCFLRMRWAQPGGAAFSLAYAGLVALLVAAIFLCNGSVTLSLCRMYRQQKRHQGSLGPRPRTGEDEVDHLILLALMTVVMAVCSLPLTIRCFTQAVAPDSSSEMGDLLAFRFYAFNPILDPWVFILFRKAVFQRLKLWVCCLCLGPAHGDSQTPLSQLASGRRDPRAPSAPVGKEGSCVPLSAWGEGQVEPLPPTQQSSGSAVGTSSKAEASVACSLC
Experiment: FLIPR Ca2+ signaling PG antagonist assay, IP stable cell line
Type: cell-based
Details: HEK-293 EBNA cells, human recombinant IP, no exogenous G-protein; standard agonist Cicaprost
Readout name: Kb (µM)
Express the result in µM but write the number alone.

Documented Kb of CC(C)COc1ccc(C(F)(F)F)cc1Cn1ncc2cc(C(=O)O)ccc21 [Example 18] : 6.5

Consider now this further compound.
Documented Kb of Cc1nn(Cc2cc(Cl)ccc2OCC(C)C)c2ncc(C(=O)O)cc12 [Example 61] : 1.75

###

Target: human prostanoid FP receptor (Homo sapiens)
Construct: expressed in transfected cells
Sequence (P43088 whole entry): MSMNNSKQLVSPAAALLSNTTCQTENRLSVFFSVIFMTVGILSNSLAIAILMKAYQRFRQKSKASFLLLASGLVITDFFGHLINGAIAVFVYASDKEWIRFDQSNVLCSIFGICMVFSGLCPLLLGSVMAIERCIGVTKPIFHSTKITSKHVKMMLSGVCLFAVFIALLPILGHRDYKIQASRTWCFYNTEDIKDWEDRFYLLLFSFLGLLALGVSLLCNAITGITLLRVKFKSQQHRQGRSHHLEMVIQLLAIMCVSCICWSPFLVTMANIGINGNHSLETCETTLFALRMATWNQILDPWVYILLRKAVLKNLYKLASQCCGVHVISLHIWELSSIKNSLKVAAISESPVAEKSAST
Experiment: FLIPR Ca2+ signaling PG antagonist assay, FP stable cell line
Assay type: cell-based
Conditions: HEK-293 EBNA cells, human recombinant FP, no exogenous G-protein; standard agonist 17-phenyl-PGF2α
Protocol: The above compounds were tested for PG antagonist activity as follows using human recombinant prostanoid receptor (DP1, EP1-4, FP, IP and TP) stable cell lines: In order to measure the response of Gs and Gi coupled prostanoid receptors as a Ca^2+ signal, chimeric G protein cDNAs were used. […] Ca^2+ signaling studies were performed using a FLIPR TETRA system (Molecular Devices, Sunnyvale, Calif., USA) in the 384-format. […] Assay plates were read for 3.5 minutes using the FLIPR^TETRA. […]
Readout name: Kb (nM)

Documented Kb of `CC(C)COc1ccc(OCC(F)F)cc1Cn1ncc2cc(C(=O)O)ccc21` : 40

Documented Kb of `Cc1nn(Cc2cc(OC(F)(F)F)ccc2OCC(C)C)c2ccc(C(=O)O)cc12` : 140

Documented Kb of `CC(C)COc1ccc(C(F)(F)F)cc1Cn1ncc2cc(C(=O)O)ccc21` : 20

Documented Kb of `CCC(CC)COc1ccc(Cl)cc1Cn1ncc2c(C(=O)O)cccc21` : 1100

Documented Kb of `CC(C)COc1ccc(Br)cc1Cn1ccc2cc(C(=O)O)ccc21` : 100

Documented Kb of `CCC(CC)COc1ccc(Br)cc1Cn1ccc2cc(C(=O)O)ccc21` : 800

(a) CC(C)COc1ccc(Br)cc1Cn1ncc2ccc(C(=O)O)cc21
(b) CCC(CC)COc1ccc(C(F)(F)F)cc1Cn1nc(C)c2cc(C(=O)O)ccc21
(c) O=C(O)c1ccc2c(cnn2Cc2cc(Br)ccc2OCc2ccc(Cl)cc2)c1
Rank descending by Kb. Show the ranking through the labels, in the order asked for. a, b, c

###

The entries below are paired with their reported Kb.
Target: human prostanoid EP2 receptor (Homo sapiens)
Construct: expressed in transfected cells
Sequence (P43116 whole entry): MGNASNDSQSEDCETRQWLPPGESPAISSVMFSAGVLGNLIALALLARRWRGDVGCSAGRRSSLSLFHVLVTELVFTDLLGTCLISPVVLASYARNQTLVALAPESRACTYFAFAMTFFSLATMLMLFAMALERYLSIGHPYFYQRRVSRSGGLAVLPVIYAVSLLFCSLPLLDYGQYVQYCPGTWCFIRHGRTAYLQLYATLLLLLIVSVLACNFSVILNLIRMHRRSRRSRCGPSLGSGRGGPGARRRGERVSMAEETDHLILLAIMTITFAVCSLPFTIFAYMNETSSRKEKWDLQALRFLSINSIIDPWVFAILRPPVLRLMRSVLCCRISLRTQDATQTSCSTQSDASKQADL
Assay: FLIPR Ca2+ signaling PG antagonist assay, EP2 stable cell line
Type: cell-based
Conditions: HEK-293 EBNA cells, human recombinant EP2 with chimeric Gqs; standard agonist PGE2

In the examples that follow, each entry is paired with its recorded Kb.
Documented Kb of `CCC(CC)COc1ccc(Cl)cc1Cn1ncc2cc(C(N)=O)ncc21` : ≥ 10 µM

Documented Kb of `O=C(O)c1cccc2c1cnn2Cc1cc(Cl)ccc1OCC1CC1` : ≥ 10 µM

Consider now this further compound.
Documented Kb of `CC(C)COc1ccc(C(F)(F)F)cc1Cn1ncc2cc(C(=O)O)ccc21` : ≥ 10 µM

###

The entries below are paired with their reported Kb.
Target: human prostanoid EP3 receptor (Homo sapiens, UniProt P43115)
Construct: expressed in transfected cells
Sequence (P43115 whole entry): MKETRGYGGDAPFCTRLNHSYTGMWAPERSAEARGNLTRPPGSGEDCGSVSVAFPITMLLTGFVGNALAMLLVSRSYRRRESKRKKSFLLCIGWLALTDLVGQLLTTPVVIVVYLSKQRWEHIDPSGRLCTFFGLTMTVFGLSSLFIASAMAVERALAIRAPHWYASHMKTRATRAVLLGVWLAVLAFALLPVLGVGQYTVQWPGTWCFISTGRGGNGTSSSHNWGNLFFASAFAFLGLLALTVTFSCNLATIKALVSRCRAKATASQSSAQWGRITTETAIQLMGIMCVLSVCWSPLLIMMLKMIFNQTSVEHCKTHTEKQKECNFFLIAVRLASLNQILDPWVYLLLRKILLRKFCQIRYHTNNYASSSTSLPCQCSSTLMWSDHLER
Test: FLIPR Ca2+ signaling PG antagonist assay, EP3 stable cell line
Assay type: cell-based
Conditions: HEK-293 EBNA cells, human recombinant EP3 with chimeric Gqi; standard agonist PGE2

In the examples that follow, each entry is paired with its recorded Kb.
Documented Kb of `O=C(O)c1ccc2c(cnn2Cc2cc(Br)ccc2OCC2CC2)c1` : 8.4 µM

Documented Kb of `CC(C)COc1ccc(S(C)(=O)=O)cc1Cn1ncc2cc(C(=O)O)ccc21` : ≥ 10 µM

Documented Kb of `CC(C)COc1ccc(Br)cc1Cn1ccc2nc(C(=O)O)ccc21` : ≥ 10 µM

Documented Kb of `CCC(CC)COc1ccc(Br)cc1Cn1ccc2ccc(C(=O)O)cc21` : ≥ 10 µM

Documented Kb of `CC(C)COc1ccc(Cl)cc1Cn1cc2cc(C(=O)O)ccc2n1` : 4 µM

Consider now this further compound.
Documented Kb of `CCC(CC)COc1ccc(Br)cc1Cn1cnc2cc(C(=O)O)ccc21` : ≥ 10 µM

###

Target: human prostanoid TP receptor (Homo sapiens, UniProt P21731)
Construct: expressed in transfected cells
Sequence (P21731 whole entry): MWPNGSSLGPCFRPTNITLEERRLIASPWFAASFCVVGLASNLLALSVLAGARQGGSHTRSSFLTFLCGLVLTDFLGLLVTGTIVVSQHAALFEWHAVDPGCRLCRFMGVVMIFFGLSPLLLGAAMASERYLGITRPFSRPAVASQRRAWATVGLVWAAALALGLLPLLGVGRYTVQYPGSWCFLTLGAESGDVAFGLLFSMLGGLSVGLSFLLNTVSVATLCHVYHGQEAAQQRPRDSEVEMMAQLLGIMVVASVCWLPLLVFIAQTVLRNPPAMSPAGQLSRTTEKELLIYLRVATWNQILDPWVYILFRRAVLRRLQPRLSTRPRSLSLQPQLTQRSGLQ
Experiment: FLIPR Ca2+ signaling PG antagonist assay, TP stable cell line
Type: cell-based
Details: HEK-293 EBNA cells, human recombinant TP, no exogenous G-protein; standard agonist U-46619
Readout name: Kb (nM)

In the examples that follow, each entry is paired with its recorded Kb.
Documented Kb of `O=C(O)c1cccc2nn(Cc3cc(Cl)ccc3OCc3ccc(Cl)cc3)cc12` : 7400

Documented Kb of `O=C(O)c1ccc2cn(Cc3cc(Br)ccc3OCC3CCCC3)nc2c1` : 80

Documented Kb of `CC(C)COc1ccc(Br)cc1Cn1ncc2cc(C(=O)O)ccc21` : 2

Documented Kb of `Cc1ccc(OCC(C)C)c(Cn2ncc3cc(C(=O)O)ccc32)n1` : 5700

Documented Kb of `CC1(COc2ccc(Br)cc2Cn2ncc3cc(C(=O)O)ccc32)CC1` : 50

Documented Kb of `Cc1nn(Cc2cc(Cl)ccc2OCC(C)C)c2ccc(C(=O)O)cc12` : 80

(A) CCC(CC)COc1ccc(OC(F)(F)F)cc1Cn1ccc2cc(C(=O)O)cnc21
(B) O=C(O)c1cccc2c1cnn2Cc1cc(Cl)ccc1OCC1CC1
(C) CCC(CC)COc1ccc(Br)cc1Cn1nc(C)c2cc(C(=O)O)cnc21
(D) CC(C)COc1ccc(Br)cc1Cn1cnc2cc(C(=O)O)ccc21
(E) CC(C)COc1ccc(OC(F)(F)F)cc1Cn1ncc2cc(C(=O)O)ccc21
Rank descending by Kb. Show the ranking through the labels, in the order asked for. C, B, E, A, D

(a) O=C(O)c1ccc2c(cnn2Cc2cc(Br)ccc2OCC2CC2)c1
(b) CC(C)COc1ccc(Cl)cc1Cn1ncc2c(C(=O)O)cccc21
Of a and b , which one carries the higher reported Kb? Refer to your chosen item by its label in the answer. a
